All values here come from patent US20230049752A1.

Would you mind telling me the reported FACS signal at 8 nM of each entry?
Molecular target: human Claudin-6 (CLDN6) (human) (UniProt P56747)
Assay: FACS, limiting dilution, OV90 cells
Give bare numbers.

Below, 2 binders whose answers are already recorded.
Given AB S2 (antibody, V domains shown) VH: EVQLLESGGGLVQPGGSMRLSCAASGFTFSNYWMNWVRQAPGKGLEWIAQIRLKSDNYATHYADSVKGRFTISRDDSKRTVYLQMNSLRAEDTGTYYCSDGPPSGSWGQGTLLTVSS VL: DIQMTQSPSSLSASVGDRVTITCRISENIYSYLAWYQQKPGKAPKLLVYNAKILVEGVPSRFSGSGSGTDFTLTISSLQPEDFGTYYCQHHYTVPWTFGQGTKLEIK , state its recorded FACS signal at 8 nM.
3950

What does the record list as FACS signal at 8 nM for AB S12 (antibody, V domains shown) VH: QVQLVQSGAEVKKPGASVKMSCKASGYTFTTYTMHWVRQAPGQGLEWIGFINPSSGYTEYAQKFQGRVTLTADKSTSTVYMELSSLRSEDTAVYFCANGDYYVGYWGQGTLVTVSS VL: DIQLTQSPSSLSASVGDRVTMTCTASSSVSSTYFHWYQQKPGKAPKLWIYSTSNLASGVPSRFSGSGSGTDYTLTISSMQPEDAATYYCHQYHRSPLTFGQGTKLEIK ?
4630

Provide the reported FACS signal at 8 nM of each entry below, same order.
1. AB3-7 (antibody, V domains shown, humanized; also called AB23; humanized AB3-7) VH: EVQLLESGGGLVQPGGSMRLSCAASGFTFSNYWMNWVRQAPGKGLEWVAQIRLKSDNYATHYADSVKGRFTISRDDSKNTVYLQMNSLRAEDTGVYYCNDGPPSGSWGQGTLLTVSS VL: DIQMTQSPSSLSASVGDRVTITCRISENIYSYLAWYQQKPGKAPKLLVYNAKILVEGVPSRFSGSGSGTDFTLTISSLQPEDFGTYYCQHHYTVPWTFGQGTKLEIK
2. AB S1 (antibody, V domains shown) VH: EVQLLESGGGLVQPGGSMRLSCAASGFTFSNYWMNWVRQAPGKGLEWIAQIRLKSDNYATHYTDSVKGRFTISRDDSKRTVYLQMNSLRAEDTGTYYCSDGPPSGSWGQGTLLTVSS VL: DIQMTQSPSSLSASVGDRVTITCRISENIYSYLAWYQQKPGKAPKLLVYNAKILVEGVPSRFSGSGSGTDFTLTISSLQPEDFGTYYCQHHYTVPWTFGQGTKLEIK

[565, 2390]
